- System: Plasmodium berghei
- Test description: Screen against P. berghei liver stage (PbLuc), transformed with Luciferase, at 10uM
- Assay type: functional, HepG2
- Applied conditions: tested at 10 uM
In all, about 69,000 compounds went through this assay and about 8,600 (12%) showed an effect of 50% or more. Only a selection was taken, and strong results are over-represented in it overall.
Please provide measured INHIBITION for the entries that follow.
Give bare numbers, in %.

// worked examples, INHIBITION included
Compound	Measurement unit	INHIBITION
COc1ccc(CN(C)[C@@H]2CN(C(=O)c3ccccc3)C[C@H]2O)cc1	%	25.6
CCCS(=O)(=O)N1C[C@H](N(C)Cc2ccco2)[C@@H]2OCCC[C@@H]21	%	40.4
O=C(Cn1nc(Br)nc1Br)N1CCOCC1	%	15.5
CC(NC(=O)CCCOc1ccc(F)cc1)c1nnc2n1CCC2 (stereo not given)	%	-12.2
Cc1nc(-c2cccc(N3CCC(N[C@@H]4CCOC4)CC3)c2)cs1	%	44.1
O=C(CNCCn1cccn1)NCC1(c2ccccc2)CCOCC1	%	25.4
O=C(Cc1ccc2c(c1)OCC2)Nc1nn[nH]n1	%	23.1
CCn1cc(CN2CCCN(C(=O)c3ccccc3C)CC2)cn1	%	-57.4
Cn1cc(C2CCCN2C(=O)CCCc2ccccn2)cn1 (stereo not given)	%	62.6
Cn1cc(C2CCCN2C(=O)CCCOc2ccccc2F)cn1 (stereo not given)	%	0.914

Record INHIBITION for all entries; do not skip any.
1. O=C1CC2(CCN(S(=O)(=O)c3cccs3)C2)CN1c1cccc(F)c1 (stereo not given)
2. O=C(CN1C(=O)CCC1=O)N1CCOC2(CCOCC2)C1
3. CC(NC(=O)Nc1nccs1)c1ccncc1 (stereo not given)
4. COCCNC(=O)c1ccc(C)c(-n2cccc2)c1
5. CC(NC(=O)Nc1nccs1)c1ccc(S(C)(=O)=O)cc1 (stereo not given)
6. CCN(C(=O)Nc1cc(C)on1)C(C)c1cccc(O)c1 (stereo not given)
7. CC(NC(=O)Nc1nccs1)c1cccnc1 (stereo not given)
8. COc1ccccc1N1CCN(C(=O)c2ccnc(N(C)C)c2)CC1

1. -20.8
2. 32.4
3. 5.91
4. -15
5. 16.8
6. -2.43
7. 54.8
8. 77.15

Record INHIBITION for all entries; do not skip any.
1. COc1ccc(CN(C)[C@@H]2CN(C(=O)c3ccnn3C)C[C@H]2O)cc1
2. COc1ccc(CN(C)[C@@H]2CN(C(=O)c3cccnc3)C[C@H]2O)cc1
3. COc1ccc(CN(C)[C@@H]2CN(C(=O)c3cccs3)C[C@H]2O)cc1
4. NCC1[C@H]2CN(Cc3ccccc3)C[C@@H]12 (stereo not given in full)

1. -55
2. 52
3. 24.5
4. 5.73

Record INHIBITION for all entries; do not skip any.
1. CCCc1noc(CCC(=O)N2CCCC2c2ccncc2)n1 (stereo not given)
2. Cn1cc(C2CCCN2C(=O)CCCc2cccs2)cn1 (stereo not given)
3. O=C(CN1C(=O)CCC1=O)N1CCOCC1

1: 13.3; 2: 9.14; 3: 59.8

----------
- System: Plasmodium berghei
- Test description: Screen against P. berghei liver stage (PbLuc), transformed with Luciferase, at 10uM
- Format: functional, HepG2
- Applied conditions: tested at 10 uM
Among all 69,000 compounds or so, about 8,600 (12%) showed an effect of 50% or more. The list comes from a sample in which strong results are over-represented; it also holds close analogues and randomly drawn compounds.
Please note: INHIBITION exactly at 20% is 0. Only values below 20% get 1.

// below: answered compounds
Compound	Target or system	Qualitative label
COc1ccc(C2SCC(=O)Nc3n[nH]cc32)c(OC)c1OC (stereo not drawn)	Plasmodium berghei	0
CS(=O)(=O)CCN1CCC(Nc2c(Cl)cccc2C#N)CC1	Plasmodium berghei	0

Bench note: check whether CSCCC(=O)N1CCCC(n2ccnc2)C1 (stereo not drawn) shows INHIBITION below 20%
1

Bench note: check whether Cc1noc([C@@H]2C[C@@H]3CCN(CC4CC4)C[C@H]3O2)n1 shows INHIBITION below 20%
1

Bench note: check whether CCn1ccnc1C1CCN(Cc2cccc(Cl)c2)CC1 shows INHIBITION below 20%
0

Bench note: check whether c1ccc(Cc2cncc(C3CCCN3C3CCOCC3)n2)cc1 (stereo not drawn) shows INHIBITION below 20%
1

Bench note: check whether Cc1c[nH]nc1C1CCCN(C(=O)Cn2cccn2)C1 (stereo not drawn) shows INHIBITION below 20%
1
